Data origin, for the record: patent US9617259B2

Quick reference for IC50 among some compounds
# TARGET_ENTITY: human catalytic domain HDAC4 protein (amino acids 648-1032) (Homo sapiens (Human), UniProt P56524)
# Sequence (P56524 648-1032): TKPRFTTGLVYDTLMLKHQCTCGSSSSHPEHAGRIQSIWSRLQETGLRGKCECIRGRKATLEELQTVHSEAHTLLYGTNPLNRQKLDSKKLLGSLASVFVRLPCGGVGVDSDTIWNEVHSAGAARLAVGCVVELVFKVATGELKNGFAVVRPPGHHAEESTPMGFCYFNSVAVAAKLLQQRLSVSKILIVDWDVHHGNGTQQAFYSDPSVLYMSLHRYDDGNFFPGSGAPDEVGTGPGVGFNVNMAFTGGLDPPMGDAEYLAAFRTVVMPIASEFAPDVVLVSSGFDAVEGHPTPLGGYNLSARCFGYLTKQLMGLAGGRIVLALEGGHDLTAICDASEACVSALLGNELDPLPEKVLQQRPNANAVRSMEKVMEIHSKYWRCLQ
# PROCEDURE_DETAILS: Inhibition of HDAC4 catalytic domain enzymatic activity, fluorogenic substrate Boc-Lys(Tfa)-AMC
# CONDITION_DESCRIPTION: read-out: Biochemical HDAC-4 IC50

Field: example entries. Status: answers known.
COMPOUND	IC50
Cc1c(F)cccc1[C@@]1(C(=O)NO)C=C(c2cncc(C(F)(F)F)c2)CC1 [Example 17]	30 nM
Cc1ncc(C2=C[C@](C(=O)NO)(c3cccc(F)c3C)CC2)cc1Cl [Example 26]	10 nM
Cc1c(F)cccc1[C@]1(C(=O)NO)C=C(c2ccccc2)CC1 [Example 1]	7600 nM
Cc1c(F)cccc1[C@@]1(C(=O)NO)C=C(c2ccccc2)CC1 [Example 2]	20 nM
Cc1c([C@@]2(C(=O)NO)C=C(c3ccc4cnn(C)c4c3)CC2)ccc(F)c1F [Example 42]	10 nM
Cc1c(F)cccc1[C@@]1(C(=O)NO)C=C(c2cncc(F)c2)CC1 [Example 6]	10 nM

-- ask What measured IC50 goes with Cc1c(F)cccc1[C@@]1(C(=O)NO)C=C(c2cnc(C3CC3)nc2)CC1 [Example 24] ?
-- reply 20 nM
